# Assay Comment: Presto Blue cell viability assay in non-tumoral cells, single drugs and Paclitaxel combinations (Chou–Talalay, Bliss, HSA analysis)
# Condition Info: human, HOSE6.3 cells (non-tumoral)
Measure: viability at 48 h, 0.5 x IC50 (%)
Hi! Could you send only the number? It should be in %, unit omitted.

Request: // Input: "O=C(O)C[C@H](O)C[C@H](O)/C=C/c1c(C2CC2)nc2ccccc2c1-c1ccc(F)cc1" . Output its viability at 48 h, 0.5 x IC50 only.
Result: 76.5

###

# Test system: HOSE6.3 cells
# Assay Comment: Presto Blue cell viability assay in non-tumoral cells, single drugs and Paclitaxel combinations (Chou–Talalay, Bliss, HSA analysis)
# Condition Info: Homo sapiens, 48 h
Measure: pIC50
Answer as the number alone; pIC50 is minus log10 of concentration in mol/L.

Request: // Input: CCC(C)n1ncn(-c2ccc(N3CCN(c4ccc(OCC5COC(Cn6cncn6)(c6ccc(Cl)cc6Cl)O5)cc4)CC3)cc2)c1=O (stereo not shown) . Output its pIC50 only.
Result: 4.41

###

# Assay Comment: Presto Blue cell viability assay in non-tumoral cells, single drugs and Paclitaxel combinations (Chou–Talalay, Bliss, HSA analysis)
# Condition Info: human, HOSE6.3 cells (non-tumoral)
Measure: viability at 48 h, 2 x IC50 (%)
Hi! Could you send only the number? It should be in %, unit omitted.

Request: // Input: "O=C(O)C[C@H](O)C[C@H](O)/C=C/c1c(C2CC2)nc2ccccc2c1-c1ccc(F)cc1" . Output its viability at 48 h, 2 x IC50 only.
Result: 65.9

###

# Assay Comment: Presto Blue cell viability assay in non-tumoral cells, single drugs and Paclitaxel combinations (Chou–Talalay, Bliss, HSA analysis)
# Condition Info: human, HOSE6.3 cells (non-tumoral)
Measure: viability at 48 h, 4 x IC50 (%)
Hi! Could you send only the number? It should be in %, unit omitted.

Request: // Input: O=C(O)C[C@H](O)C[C@H](O)/C=C/c1c(C2CC2)nc2ccccc2c1-c1ccc(F)cc1 [Pitavastatin] . Output its viability at 48 h, 4 x IC50 only.
Result: 61.4

###

# Assay Comment: Presto Blue cell viability assay in non-tumoral cells, single drugs and Paclitaxel combinations (Chou–Talalay, Bliss, HSA analysis)
# Condition Info: human, HOSE6.3 cells (non-tumoral)
Measure: viability at 48 h, 0.25 x IC50 (%)
Hi! Could you send only the number? It should be in %, unit omitted.

Request: // Input: "O=C(O)C[C@H](O)C[C@H](O)/C=C/c1c(C2CC2)nc2ccccc2c1-c1ccc(F)cc1" . Output its viability at 48 h, 0.25 x IC50 only.
Result: 81.8

###

# Assay Comment: Presto Blue cell viability assay in non-tumoral cells, single drugs and Paclitaxel combinations (Chou–Talalay, Bliss, HSA analysis)
# Condition Info: human, HOSE6.3 cells (non-tumoral)
Measure: viability at 48 h, 1 x IC50

Request: // Input: "O=C(O)C[C@H](O)C[C@H](O)/C=C/c1c(C2CC2)nc2ccccc2c1-c1ccc(F)cc1" . Output its viability at 48 h, 1 x IC50 only.
Result: 68.5%

###

# System: OVCAR8 cells
# Assay Comment: Presto Blue cell viability assay, single drugs and Paclitaxel combinations (Chou–Talalay, Bliss, HSA analysis)
# Condition Info: Homo sapiens, OVCAR-8, 48 h
# Description: To determine the effect of single and combination drug treatments on the cellular viability of cell lines, a resazurin-based assay—Presto Blue (PB)—was performed. Briefly, 5 × 10^3 cells/well were seeded into a 96-well plate in complete media, incubated at 37 °C and 5% CO2 and allowed to adhere overnight prior to drug exposure. After 24 h, cells were exposed to increasing concentrations of drugs and incubated under the same conditions. […]
Measure: IC50 (µM)
Hi! Could you send only the number? It should be in µM, unit omitted.

Some compounds with known IC50 results, for comparison:
>  <Compound>
NCCCC(O)(P(=O)(O)O)P(=O)(O)O [Alendronate]

>  <Measure>
IC50

>  <Value Reported>
219

$$$$
>  <Compound>
CCC(C)n1ncn(-c2ccc(N3CCN(c4ccc(OCC5COC(Cn6cncn6)(c6ccc(Cl)cc6Cl)O5)cc4)CC3)cc2)c1=O (stereo not shown)

>  <Measure>
IC50

>  <Value Reported>
39.1

$$$$
>  <Compound>
O=C(O)C[C@H](O)C[C@H](O)/C=C/c1c(C2CC2)nc2ccccc2c1-c1ccc(F)cc1

>  <Measure>
IC50

>  <Value Reported>
0.801

$$$$

// next entry
Request: // Input: "CN(C)C(=N)N=C(N)N" . Output its IC50 only.
Result: 1500
